The origin of these recorded values is patent US20190375844A1.

Biological target: T1, human CD127 (IL-7Rα) on human PBMC (human, UniProt P16871 21-459)
T1 chain: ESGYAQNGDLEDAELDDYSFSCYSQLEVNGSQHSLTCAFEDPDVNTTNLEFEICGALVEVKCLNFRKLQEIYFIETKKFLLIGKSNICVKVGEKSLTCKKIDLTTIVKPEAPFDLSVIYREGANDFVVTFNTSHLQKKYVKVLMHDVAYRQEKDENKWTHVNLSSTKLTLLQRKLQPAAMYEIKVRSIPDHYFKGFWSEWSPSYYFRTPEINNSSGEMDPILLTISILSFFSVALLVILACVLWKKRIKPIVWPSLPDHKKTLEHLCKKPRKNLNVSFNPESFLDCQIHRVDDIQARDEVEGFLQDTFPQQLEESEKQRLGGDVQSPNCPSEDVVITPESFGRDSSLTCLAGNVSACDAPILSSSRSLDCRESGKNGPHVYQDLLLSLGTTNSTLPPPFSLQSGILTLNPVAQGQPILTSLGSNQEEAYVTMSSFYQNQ
Experiment: cell-based or functional assay
Field 'label' (enum: true (1) / false (0)). Set to true (1) when IC50-MFI, inhibition of IL7-induced STAT5 phosphorylation in CD3+ human PBMC is strictly under 0.02 µg/mL; else false (0).

INSERT INTO assay_data (binder, cat) VALUES
  ('N13B2-hVL4 (antibody, V domains shown, also called N13B2-VL4-V48L) VH: QVQLVESGGGLVKPGGSLRLSCAVSGFTLSDYYMAWIRQAPGKGLEWVSTISASGLRTYYPDSVKGRFTISRDNAKNSLYLQMNSLRAEDTAVYYCARPLSAHYGFNYFDYWGQGTLVTVSS VL: DIQMTQSPSSLSASVGDRVTITCRTSEDIYQGLAWYQQKPGKAPKLLLYSANTLHIGVPSRFSGSGSGTDYTLTISSLQPEDFATYFCQQYYDYPLAFGGGTKVEIKR', 'true (1)'),
  ('N13B2-hVL3 (antibody, V domains shown) VH: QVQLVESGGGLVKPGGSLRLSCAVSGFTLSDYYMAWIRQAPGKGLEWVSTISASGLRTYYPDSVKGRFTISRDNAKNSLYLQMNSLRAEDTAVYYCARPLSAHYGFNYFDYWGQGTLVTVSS VL: DIQMTQSPSSLSASVGDRVTITCRTSEDIYQGLAWYQQKPGKAPKLLVYSANTLHIGVPSRFSGSGSGTDYTLTISSLQPEDFATYFCQQYYDYPLAFGGGTKVEIKR', 'false (0)'),
  ('N13B2-h3 (antibody, V domains shown, also called humanized N13B2 of WO 2015/189302) VH: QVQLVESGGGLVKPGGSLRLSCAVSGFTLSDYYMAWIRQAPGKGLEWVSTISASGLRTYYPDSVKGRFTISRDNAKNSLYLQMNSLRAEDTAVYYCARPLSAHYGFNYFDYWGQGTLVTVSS VL: EIVMTQSPATLSVSPGERATLSCRTSEDIYQGLAWYQQKPGQAPRLLIYSANTLHIGIPARFSGSGSGTEFTLTISSLQSEDFAVYYCQQYYDYPLAFGGGTKVEIKR', 'false (0)'),
  ('N13B2-hVL6 (antibody, V domains shown, also called N13B2-h3VL6; N13B2-VL6-V48L-F87Y) VH: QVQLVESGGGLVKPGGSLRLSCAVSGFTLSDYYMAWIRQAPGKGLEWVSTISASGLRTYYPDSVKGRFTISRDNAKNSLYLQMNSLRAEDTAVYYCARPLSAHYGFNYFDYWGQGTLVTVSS VL: DIQMTQSPSSLSASVGDRVTITCRTSEDIYQGLAWYQQKPGKAPKLLLYSANTLHIGVPSRFSGSGSGTDYTLTISSLQPEDFATYYCQQYYDYPLAFGGGTKVEIKR', 'true (1)'),
  ('N13B2-hVL5 (antibody, V domains shown, also called N13B2-VL5-F87Y) VH: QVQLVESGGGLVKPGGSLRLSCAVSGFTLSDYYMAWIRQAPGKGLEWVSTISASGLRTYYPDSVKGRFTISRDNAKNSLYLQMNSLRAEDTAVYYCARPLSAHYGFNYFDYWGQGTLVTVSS VL: DIQMTQSPSSLSASVGDRVTITCRTSEDIYQGLAWYQQKPGKAPKLLVYSANTLHIGVPSRFSGSGSGTDYTLTISSLQPEDFATYYCQQYYDYPLAFGGGTKVEIKR', 'false (0)');
